target: Muscarinic acetylcholine receptor M1 (Rattus norvegicus); assay: Displacement of [3H]-Pz (pirenzepine) from the muscarinic receptor M1 of the rat hippocampus; format: tissue-based
Sequence (P08482 whole entry): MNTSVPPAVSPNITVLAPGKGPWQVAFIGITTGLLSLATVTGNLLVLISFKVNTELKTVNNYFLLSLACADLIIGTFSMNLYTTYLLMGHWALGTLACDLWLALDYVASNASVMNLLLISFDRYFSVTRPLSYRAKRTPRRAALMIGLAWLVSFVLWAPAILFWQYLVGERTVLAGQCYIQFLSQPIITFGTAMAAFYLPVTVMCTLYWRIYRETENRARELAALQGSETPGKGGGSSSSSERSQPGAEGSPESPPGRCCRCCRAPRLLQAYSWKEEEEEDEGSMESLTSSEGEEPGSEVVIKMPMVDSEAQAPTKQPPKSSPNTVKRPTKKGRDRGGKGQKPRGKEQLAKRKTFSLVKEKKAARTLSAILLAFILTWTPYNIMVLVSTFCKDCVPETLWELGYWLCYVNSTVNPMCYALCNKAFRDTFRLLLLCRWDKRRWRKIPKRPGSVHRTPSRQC
EXPERIMENTAL ENDPOINT: IC50 (nM)
# unit: nM | format: bare number

q: Identify IC50 associated with the molecule CCCCOc1nscc1C1=CCCN(C)C1
a: 565

###

target: Muscarinic acetylcholine receptor; assay: Displacement of [3H]-OXO-M (oxotremorine-M) from the central muscarinic receptor sites of the rat brain membranes; assay type: cell membranes, Membrane
EXPERIMENTAL ENDPOINT: log10(IC50) (log10 of the value in nM)
Values reflect log10 of reported IC50 (nM).

| STRUCTURE AS SMILES | EXPERIMENTAL RESULT |
| --- | --- |
| C[N+](C)(C)CC#CCOC(=O)Nc1cccc(Cl)c1.[Cl-] | 2.55 |
| CCCCOc1cscc1C1=CCCN(C)C1 | 2.68 |
| CCCCOc1nsnc1C1=CCCN(C)C1 | 0.15 |
| CCCCOc1noc(C)c1C1=CCCN(C)C1 | 2.88 |
| CCCCOc1nonc1C1=CCCN(C)C1 | 1.38 |
| CCCCOc1nscc1C1=CCCN(C)C1 | 2.74 |

Next up:
q: Identify log10(IC50) associated with the molecule CCCCCCOc1nonc1C1=CCCN(C)C1
a: 1.85
